Origin of measurements: ChEMBL document CHEMBL1144638

Quick record of pKi values for Collagenase 3 (Homo sapiens, UniProt P45452).
pKi: −log10 of the molar value.

INSERT INTO measurements (smiles_string, assayed_target, measured_value) VALUES
  ('Cc1cc(COc2ccc(S(=O)(=O)NCc3n[nH]c(=O)[nH]3)cc2)c2ccccc2n1', 'Collagenase 3 (Homo sapiens, UniProt P45452)', '< 5.30');

Enquiry: Fill in the blank: the reported pKi of Cc1cc(COc2ccc(C(=O)Nc3ccccc3Cc3c[nH]c(=O)[nH]3)cc2)c2ccccc2n1 is ____.
Return: < 5.30

Enquiry: Return reported pKi; argument: Cc1cc(COc2ccc(C(=O)Nc3ccccc3Cc3n[nH]c(=O)[nH]3)cc2)c2ccccc2n1
Return: 5.37

###

Each entry below carries its measured Ki, system: 72 kDa type IV collagenase (Homo sapiens, UniProt P08253).
Sequence (P08253 whole entry): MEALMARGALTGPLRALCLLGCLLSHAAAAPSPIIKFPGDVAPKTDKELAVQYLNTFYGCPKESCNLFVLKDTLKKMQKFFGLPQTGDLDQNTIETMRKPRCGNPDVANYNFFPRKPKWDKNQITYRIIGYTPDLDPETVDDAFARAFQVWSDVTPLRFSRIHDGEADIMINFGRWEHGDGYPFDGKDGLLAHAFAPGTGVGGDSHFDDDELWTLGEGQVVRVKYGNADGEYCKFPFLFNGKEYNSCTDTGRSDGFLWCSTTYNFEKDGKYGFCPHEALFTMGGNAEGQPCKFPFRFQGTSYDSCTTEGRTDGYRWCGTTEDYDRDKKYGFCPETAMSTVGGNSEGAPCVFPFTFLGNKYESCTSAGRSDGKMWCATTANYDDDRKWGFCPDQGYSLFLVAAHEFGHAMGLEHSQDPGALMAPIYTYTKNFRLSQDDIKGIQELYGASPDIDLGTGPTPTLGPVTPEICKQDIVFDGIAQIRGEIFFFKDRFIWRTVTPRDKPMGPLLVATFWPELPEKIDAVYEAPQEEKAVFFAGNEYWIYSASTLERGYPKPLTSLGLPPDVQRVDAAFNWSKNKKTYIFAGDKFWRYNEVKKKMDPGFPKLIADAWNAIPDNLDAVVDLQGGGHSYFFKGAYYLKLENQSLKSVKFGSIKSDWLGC

Illustrative cases are given below, each with its answer.
INSERT INTO assay_data (compound, assay_readout, measured_value) VALUES
  ('Cc1cc(COc2ccc(C(=O)NCC3(C)NC(=O)NC3=O)cc2)c2ccccc2n1 (centres undefined)', 'Ki', '> 3.33 µM'),
  ('Cc1cc(COc2ccc(C(=O)Nc3ccccc3C3NC(=O)NC3=O)cc2)c2ccccc2n1 (centres undefined)', 'Ki', '> 3.33 µM'),
  ('Cc1cc(COc2ccc(S(=O)(=O)NCc3n[nH]c(=O)[nH]3)cc2)c2ccccc2n1', 'Ki', '2.47 µM');

Enquiry: Under 72 kDa type IV collagenase (Homo sapiens, UniProt P08253): Ki value of Cc1cc(COc2ccc(C(=O)N[C@H]3CN(C(=O)OC(C)(C)C)C[C@@H]3c3n[nH]c(=O)[nH]3)cc2)c2ccccc2n1 ?
Return: > 3.33 µM

###

Target chain: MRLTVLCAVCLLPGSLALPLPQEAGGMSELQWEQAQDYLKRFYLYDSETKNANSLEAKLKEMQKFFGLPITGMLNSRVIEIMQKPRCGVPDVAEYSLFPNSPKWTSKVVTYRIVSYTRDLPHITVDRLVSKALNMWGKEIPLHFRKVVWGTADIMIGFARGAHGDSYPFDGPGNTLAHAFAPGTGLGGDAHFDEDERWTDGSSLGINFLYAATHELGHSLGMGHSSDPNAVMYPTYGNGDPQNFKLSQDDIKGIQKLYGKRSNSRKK
pKi: −log10 of the molar value.
assay readout: pKi

Some compounds with known pKi results, for comparison:
INSERT INTO measurements (compound, assay_readout, measured_value) VALUES
  ('Cc1cc(COc2ccc(C(=O)Nc3ccccc3C(=O)c3c[nH]c(=O)[nH]3)cc2)c2ccccc2n1', 'pKi', '< 5.20'),
  ('Cc1cc(COc2ccc(S(=O)(=O)NCc3n[nH]c(=O)[nH]3)cc2)c2ccccc2n1', 'pKi', 6.00),
  ('Cc1cc(COc2ccc(C(=O)Nc3ccccc3Cc3c[nH]c(=O)[nH]3)cc2)c2ccccc2n1', 'pKi', '< 5.20'),
  ('Cc1cc(COc2ccc(C(=O)Nc3ccccc3Cc3n[nH]c(=O)[nH]3)cc2)c2ccccc2n1', 'pKi', '< 5.20');

Enquiry: pKi for Cc1cc(COc2ccc(C(=O)Nc3ccccc3C3NC(=O)NC3=O)cc2)c2ccccc2n1 (stereo not given) ?
Return: < 5.20

###

pKi: −log10 of the molar value.
Record: pKi reported on Matrix metalloproteinase-9 (Homo sapiens).
Sequence (P14780 whole entry): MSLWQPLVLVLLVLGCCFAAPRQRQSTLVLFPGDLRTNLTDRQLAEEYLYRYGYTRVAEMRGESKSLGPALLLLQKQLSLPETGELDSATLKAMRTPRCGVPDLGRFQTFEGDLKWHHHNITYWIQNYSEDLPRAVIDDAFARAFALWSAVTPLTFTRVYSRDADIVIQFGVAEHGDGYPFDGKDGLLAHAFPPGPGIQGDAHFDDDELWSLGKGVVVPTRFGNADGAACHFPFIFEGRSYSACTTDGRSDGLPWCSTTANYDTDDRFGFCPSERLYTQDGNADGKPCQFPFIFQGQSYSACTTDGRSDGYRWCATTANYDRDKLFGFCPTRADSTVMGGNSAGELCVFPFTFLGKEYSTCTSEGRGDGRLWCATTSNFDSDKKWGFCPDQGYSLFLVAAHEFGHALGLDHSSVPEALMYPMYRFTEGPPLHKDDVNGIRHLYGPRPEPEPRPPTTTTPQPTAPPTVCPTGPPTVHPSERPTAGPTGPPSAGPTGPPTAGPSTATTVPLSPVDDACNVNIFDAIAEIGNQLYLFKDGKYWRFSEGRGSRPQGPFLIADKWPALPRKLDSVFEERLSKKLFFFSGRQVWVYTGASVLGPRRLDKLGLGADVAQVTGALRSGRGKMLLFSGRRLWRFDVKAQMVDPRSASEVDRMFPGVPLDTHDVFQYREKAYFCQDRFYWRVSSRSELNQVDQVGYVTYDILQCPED

INSERT INTO results (molecule, assayed_target, measured_value) VALUES
  ('Cc1cc(COc2ccc(S(=O)(=O)NCC3(C)NC(=O)NC3=O)cc2)c2ccccc2n1 (configuration not stated)', 'Matrix metalloproteinase-9 (Homo sapiens)', '< 5.67');

In the following, a different molecule is considered.
Enquiry: Which pKi is listed for Cc1cc(COc2ccc(C(=O)NCC3(C)NC(=O)NC3=O)cc2)c2ccccc2n1 (configuration not stated) ?
Return: < 5.67
